Test: activity coefficient (dimensionless); of the first substance listed, at infinite dilution; xn = mol fraction of the nth substance listed
Settings: 348.15 K; 101 kPa; Liquid; Chromatography; x1 = 0
Please go through the items and note down their activity coefficient.

// lookup activity coefficient for CCCOCCC [dipropyl ether] + CCCC[n+]1cccc(C)c1.N#C[N-]C#N
16.3

// lookup activity coefficient for Cc1ccccc1 [toluene] + CCCC[n+]1cccc(C)c1.N#C[N-]C#N
2.1

// lookup activity coefficient for CCCCC(C)=O [2-hexanone] + CCCC[n+]1cccc(C)c1.N#C[N-]C#N
2.54

// lookup activity coefficient for Cc1ccccc1C [1,2-dimethylbenzene] + CCCC[n+]1cccc(C)c1.N#C[N-]C#N
2.58

// lookup activity coefficient for C1CCOC1 [tetrahydrofuran] + CCCC[n+]1cccc(C)c1.N#C[N-]C#N
1.47

// lookup activity coefficient for C1=CCCCC1 [cyclohexene] + CCCC[n+]1cccc(C)c1.N#C[N-]C#N
7.99

// lookup activity coefficient for CCC(C)(C)C [2,2-dimethylbutane] + CCCC[n+]1cccc(C)c1.N#C[N-]C#N
39.4

// lookup activity coefficient for CC#N [acetonitrile] + CCCC[n+]1cccc(C)c1.N#C[N-]C#N
0.748

// lookup activity coefficient for c1ccccc1 [benzene] + CCCC[n+]1cccc(C)c1.N#C[N-]C#N
1.43

// lookup activity coefficient for C=CCCCCC [1-heptene] + CCCC[n+]1cccc(C)c1.N#C[N-]C#N
27

// lookup activity coefficient for CCCC(C)=O [pentan-2-one] + CCCC[n+]1cccc(C)c1.N#C[N-]C#N
1.89

// lookup activity coefficient for COC(C)(C)C [2-methoxy-2-methylpropane] + CCCC[n+]1cccc(C)c1.N#C[N-]C#N
6.79

// lookup activity coefficient for CCCC(=O)CC [3-hexanone] + CCCC[n+]1cccc(C)c1.N#C[N-]C#N
2.82

// lookup activity coefficient for C=C(C)c1ccccc1 [(1-methylethenyl)benzene] + CCCC[n+]1cccc(C)c1.N#C[N-]C#N
2.33

// lookup activity coefficient for c1ccncc1 [pyridine] + CCCC[n+]1cccc(C)c1.N#C[N-]C#N
0.731

// lookup activity coefficient for CC(C)=O [acetone] + CCCC[n+]1cccc(C)c1.N#C[N-]C#N
0.999

// lookup activity coefficient for CCc1ccccc1 [ethylbenzene] + CCCC[n+]1cccc(C)c1.N#C[N-]C#N
3.32

// lookup activity coefficient for C=CCCCC [hex-1-ene] + CCCC[n+]1cccc(C)c1.N#C[N-]C#N
18.7

// lookup activity coefficient for c1ccsc1 [thiophene] + CCCC[n+]1cccc(C)c1.N#C[N-]C#N
0.911

// lookup activity coefficient for CCCCCCCCC [nonane] + CCCC[n+]1cccc(C)c1.N#C[N-]C#N
122

// lookup activity coefficient for CCC[N+](=O)[O-] [1-nitropropane] + CCCC[n+]1cccc(C)c1.N#C[N-]C#N
1.14

// lookup activity coefficient for CCC(C)CC [3-methylpentane] + CCCC[n+]1cccc(C)c1.N#C[N-]C#N
36.9

// lookup activity coefficient for CCC(C)(C)OC [2-methoxy-2-methylbutane] + CCCC[n+]1cccc(C)c1.N#C[N-]C#N
9.44

// lookup activity coefficient for CC1CCCCC1 [methylcyclohexane] + CCCC[n+]1cccc(C)c1.N#C[N-]C#N
25.5

// lookup activity coefficient for C1CCCCC1 [cyclohexane] + CCCC[n+]1cccc(C)c1.N#C[N-]C#N
17.4

// lookup activity coefficient for C#CCCCC [1-hexyne] + CCCC[n+]1cccc(C)c1.N#C[N-]C#N
4.55

// lookup activity coefficient for CCCCCCCC [octane] + CCCC[n+]1cccc(C)c1.N#C[N-]C#N
85.2

// lookup activity coefficient for C1COCCO1 [1,4-dioxane] + CCCC[n+]1cccc(C)c1.N#C[N-]C#N
1.05

// lookup activity coefficient for C#CCCC [1-pentyne] + CCCC[n+]1cccc(C)c1.N#C[N-]C#N
3.21

// lookup activity coefficient for CCO [ethanol] + CCCC[n+]1cccc(C)c1.N#C[N-]C#N
0.545

// lookup activity coefficient for C=CCCC [1-pentene] + CCCC[n+]1cccc(C)c1.N#C[N-]C#N
13.1

// lookup activity coefficient for C=Cc1ccccc1 [styrene] + CCCC[n+]1cccc(C)c1.N#C[N-]C#N
1.49

// lookup activity coefficient for Cc1cccc(C)c1 [1,3-dimethylbenzene] + CCCC[n+]1cccc(C)c1.N#C[N-]C#N
3.14
